Each item that follows carries a reported pest or weed control at 560 g/ha.
Tested on: Abutilon theophrasti (ABUTH), velvetleaf
Assay overview: Postemergence herbicide evaluation, growth of Abutilon theophrasti (ABUTH)
Assay type: in vivo
Condition notes: Abutilon theophrasti, post-emergence, 336 h, 560 g ae/ha, 14 DAA, percent reduction in plant size vs untreated control; read-out: AVE. ABUTH
Give the quantity in %, number only.

Reference set, count: 4
Smiles code	Target or system	pest or weed control at 560 g/ha (%)
O=C(COc1ccc(Cl)cc1Cl)Nc1ccnc(Cl)c1	Abutilon theophrasti (ABUTH), velvetleaf	35
CCN(CC)OC(=O)COc1ccc(Cl)cc1Cl	Abutilon theophrasti (ABUTH), velvetleaf	94.5
O=C(COc1ccc(Cl)cc1Cl)NOCc1c(F)cccc1Cl	Abutilon theophrasti (ABUTH), velvetleaf	62.5
COc1ccc(CONC(=O)COc2ccc(Cl)cc2Cl)cc1	Abutilon theophrasti (ABUTH), velvetleaf	67.5

Indicate its recorded pest or weed control at 560 g/ha; the molecule in question is COc1ncc(OC(=O)COc2ccc(Cl)cc2Cl)cn1
52.5
